- Test system: 171881-019-R-J1-PDC tumor spheroid viability;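 note: spheroids exposed to compound for 7 days before viability read; 100% = DMSO vehicle-treated spheroids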
- PROTOCOL_NOTES: Anticancer human tumor 171881-019-R-J1-PDC patient-derived invasive breast carcinoma cell line growth inhibition [PI3K]
- STATED_CONDITIONS: second compound 0.0316 µM; first compound 0.00316 µM; stronger effect = lower value; spheroids with HUVEC and MSC
Labelling field: enter 1 (yes) if recorded viability, T/C is less than 60%. Enter 0 (no) if it equals or exceeds that cut-off.

# input Please determine if CC(=O)c1c(C)c2cnc(Nc3ccc(N4CCNCC4)cn3)nc2n(C2CCCC2)c1=O + CC(Nc1ccc2c(c1)OCCn1cc(N3C(=O)OCC3C(F)F)nc1-2)C(N)=O is below 60% in terms of viability, T/C.
# output 1 (yes)

# input Here's an entry: CCN1CCN(Cc2ccc(Nc3ncc(F)c(-c4cc(F)c5nc(C)n(C(C)C)c5c4)n3)nc2)CC1 + CC(Nc1ccc2c(c1)OCCn1cc(N3C(=O)OCC3C(F)F)nc1-2)C(N)=O . Is its viability, T/C below 60%?
# output 1 (yes)

# input Field: below-cutoff. Rule: recorded viability, T/C strictly less than 60%. Subject: CC(C)n1nc(-c2ccc3oc(N)nc3c2)c2c(N)ncnc21 + CC(Nc1ncnc2nc[nH]c12)c1cc2cccc(Cl)c2c(=O)n1-c1ccccc1
# output 0 (no)

# input Find out if reported viability, T/C for CC(C)n1nc(-c2ccc3oc(N)nc3c2)c2c(N)ncnc21 + COc1c(OCCCN2CCOCC2)ccc2c3n(c(=NC(=O)c4cnc(N)nc4)nc12)CCN3 is less than 60%
# output 1 (yes)

# input For CC(=O)c1c(C)c2cnc(Nc3ccc(N4CCNCC4)cn3)nc2n(C2CCCC2)c1=O + CC(Nc1ncnc2nc[nH]c12)c1cc2cccc(Cl)c2c(=O)n1-c1ccccc1 , is the recorded viability, T/C below the cut-off of 60%?
# output 0 (no)
